Test system: Human immunodeficiency virus 1
Method summary: Antiviral activity against HIV1 C10 isolate with protease I84C mutation in HEK 293 cells relative to wild type
Type: functional, HEK293
As shown below, each of these molecules has a reported Fold change value.

Molecule	Fold change
CC(C)(C)NC(=O)[C@@H]1CN(Cc2cccnc2)CCN1C[C@@H](O)C[C@@H](Cc1ccccc1)C(=O)N[C@H]1c2ccccc2C[C@H]1O.O	5.5
CC(C)c1nc(CN(C)C(=O)N[C@H](C(=O)N[C@@H](Cc2ccccc2)C[C@H](O)[C@H](Cc2ccccc2)NC(=O)OCc2cncs2)C(C)C)cs1 [RITONAVIR]	29
COC(=O)N[C@H](C(=O)N[C@@H](Cc1ccccc1)[C@@H](O)CN(Cc1ccc(-c2ccccn2)cc1)NC(=O)[C@@H](NC(=O)OC)C(C)(C)C)C(C)(C)C [ATAZANAVIR]	19
Cc1cccc(C)c1OCC(=O)N[C@@H](Cc1ccccc1)[C@@H](O)C[C@H](Cc1ccccc1)NC(=O)[C@H](C(C)C)N1CCCNC1=O [LOPINAVIR]	5.1
Cc1c(O)cccc1C(=O)N[C@@H](CSc1ccccc1)[C@H](O)CN1C[C@H]2CCCC[C@H]2C[C@H]1C(=O)NC(C)(C)C	286
CC(C)(C)NC(=O)[C@@H]1C[C@@H]2CCCC[C@@H]2CN1C[C@@H](O)[C@H](Cc1ccccc1)NC(=O)[C@H](CC(N)=O)NC(=O)c1ccc2ccccc2n1	242
CC(C)CN(C[C@@H](O)[C@H](Cc1ccccc1)NC(=O)O[C@H]1CCOC1)S(=O)(=O)c1ccc(N)cc1	53

* * *

Catalogue of Fold change readings, one per entry.
System: Human immunodeficiency virus 1
Method summary: Antiviral activity against HIV1 A3 isolate with protease I84A mutation in HEK 293 cells relative to wild type
Type: functional, HEK293

Record smiles	Fold change
Cc1c(O)cccc1C(=O)N[C@@H](CSc1ccccc1)[C@H](O)CN1C[C@H]2CCCC[C@H]2C[C@H]1C(=O)NC(C)(C)C	600
CC(C)CN(C[C@@H](O)[C@H](Cc1ccccc1)NC(=O)O[C@H]1CCOC1)S(=O)(=O)c1ccc(N)cc1	43
CC(C)c1nc(CN(C)C(=O)N[C@H](C(=O)N[C@@H](Cc2ccccc2)C[C@H](O)[C@H](Cc2ccccc2)NC(=O)OCc2cncs2)C(C)C)cs1	76

* * *

Form field: Fold change (one value per entry).
System: Human immunodeficiency virus 1
Method summary: Antiviral activity against HIV1 A8 isolate with protease I84A mutation in HEK 293 cells relative to wild type
Type: functional, HEK293
Quantity measured: Fold change

Record smiles	Observed value
CC(C)(C)NC(=O)[C@@H]1C[C@@H]2CCCC[C@@H]2CN1C[C@@H](O)[C@H](Cc1ccccc1)NC(=O)[C@H](CC(N)=O)NC(=O)c1ccc2ccccc2n1	265.5
CC(C)CN(C[C@@H](O)[C@H](Cc1ccccc1)NC(=O)O[C@H]1CCOC1)S(=O)(=O)c1ccc(N)cc1	252
Cc1c(O)cccc1C(=O)N[C@@H](CSc1ccccc1)[C@H](O)CN1C[C@H]2CCCC[C@H]2C[C@H]1C(=O)NC(C)(C)C	600

* * *

# reported Fold change; entries follow
System: Human immunodeficiency virus 1
Method summary: Antiviral activity against HIV1 A4 isolate with protease I84A mutation in HEK 293 cells relative to wild type
Assay type: functional, HEK293

Record smiles	Fold change
Cc1cccc(C)c1OCC(=O)N[C@@H](Cc1ccccc1)[C@@H](O)C[C@H](Cc1ccccc1)NC(=O)[C@H](C(C)C)N1CCCNC1=O	14
Cc1c(O)cccc1C(=O)N[C@@H](CSc1ccccc1)[C@H](O)CN1C[C@H]2CCCC[C@H]2C[C@H]1C(=O)NC(C)(C)C	600
CC(C)CN(C[C@@H](O)[C@H](Cc1ccccc1)NC(=O)O[C@H]1CCOC1)S(=O)(=O)c1ccc(N)cc1	32

* * *

Each record here notes measured Fold change.
Test system: Human immunodeficiency virus 1
Method summary: Antiviral activity against HIV1 A6 isolate with protease I84A mutation in HEK 293 cells relative to wild type
Assay type: functional, HEK293

Molecule	Fold change
CC(C)(C)NC(=O)[C@@H]1CN(Cc2cccnc2)CCN1C[C@@H](O)C[C@@H](Cc1ccccc1)C(=O)N[C@H]1c2ccccc2C[C@H]1O.O	38
Cc1c(O)cccc1C(=O)N[C@@H](CSc1ccccc1)[C@H](O)CN1C[C@H]2CCCC[C@H]2C[C@H]1C(=O)NC(C)(C)C	64
CC(C)c1nc(CN(C)C(=O)N[C@H](C(=O)N[C@@H](Cc2ccccc2)C[C@H](O)[C@H](Cc2ccccc2)NC(=O)OCc2cncs2)C(C)C)cs1 [RITONAVIR]	34

* * *

Tested on: Human immunodeficiency virus 1
Method summary: Antiviral activity against HIV1 A1 isolate with protease I84A mutation in HEK 293 cells relative to wild type
Format: functional, HEK293
Threshold 60: Fold change strictly smaller gives y, otherwise n.

Record smiles	Category label
Cc1cccc(C)c1OCC(=O)N[C@@H](Cc1ccccc1)[C@@H](O)C[C@H](Cc1ccccc1)NC(=O)[C@H](C(C)C)N1CCCNC1=O	y
CC(C)(C)NC(=O)[C@@H]1C[C@@H]2CCCC[C@@H]2CN1C[C@@H](O)[C@H](Cc1ccccc1)NC(=O)[C@H](CC(N)=O)NC(=O)c1ccc2ccccc2n1	n
COC(=O)N[C@H](C(=O)N[C@@H](Cc1ccccc1)[C@@H](O)CN(Cc1ccc(-c2ccccn2)cc1)NC(=O)[C@@H](NC(=O)OC)C(C)(C)C)C(C)(C)C	y
CC(C)(C)NC(=O)[C@@H]1CN(Cc2cccnc2)CCN1C[C@@H](O)C[C@@H](Cc1ccccc1)C(=O)N[C@H]1c2ccccc2C[C@H]1O.O	n
CC(C)CN(C[C@@H](O)[C@H](Cc1ccccc1)NC(=O)O[C@H]1CCOC1)S(=O)(=O)c1ccc(N)cc1	y
Cc1c(O)cccc1C(=O)N[C@@H](CSc1ccccc1)[C@H](O)CN1C[C@H]2CCCC[C@H]2C[C@H]1C(=O)NC(C)(C)C	n

* * *

System: Human immunodeficiency virus 1
Method summary: Antiviral activity against HIV1 A13 isolate with protease I84A mutation in HEK 293 cells relative to wild type
Assay type: functional, HEK293

Record smiles	Fold change
CC(C)c1nc(CN(C)C(=O)N[C@H](C(=O)N[C@@H](Cc2ccccc2)C[C@H](O)[C@H](Cc2ccccc2)NC(=O)OCc2cncs2)C(C)C)cs1	400
Cc1cccc(C)c1OCC(=O)N[C@@H](Cc1ccccc1)[C@@H](O)C[C@H](Cc1ccccc1)NC(=O)[C@H](C(C)C)N1CCCNC1=O	50
CC(C)CN(C[C@@H](O)[C@H](Cc1ccccc1)NC(=O)O[C@H]1CCOC1)S(=O)(=O)c1ccc(N)cc1	43

* * *

Test system: Human immunodeficiency virus 1
Method summary: Antiviral activity against HIV1 A6 isolate with protease I84A mutation in HEK 293 cells relative to wild type
Format: functional, HEK293
Reported Fold change values follow for various molecules
Quantity measured: Fold change

Record smiles	Target desc	Observed value
CC(C)CN(C[C@@H](O)[C@H](Cc1ccccc1)NC(=O)O[C@H]1CCOC1)S(=O)(=O)c1ccc(N)cc1	Human immunodeficiency virus 1	21
Cc1cccc(C)c1OCC(=O)N[C@@H](Cc1ccccc1)[C@@H](O)C[C@H](Cc1ccccc1)NC(=O)[C@H](C(C)C)N1CCCNC1=O	Human immunodeficiency virus 1	14
CC(C)(C)NC(=O)[C@@H]1C[C@@H]2CCCC[C@@H]2CN1C[C@@H](O)[C@H](Cc1ccccc1)NC(=O)[C@H](CC(N)=O)NC(=O)c1ccc2ccccc2n1	Human immunodeficiency virus 1	24

* * *

Below: a set of entries, each annotated with reported Fold change.
Test system: Human immunodeficiency virus 1
Method summary: Antiviral activity against HIV1 A8 isolate with protease I84A mutation in HEK 293 cells relative to wild type
Type: functional, HEK293

Record smiles	Fold change
Cc1cccc(C)c1OCC(=O)N[C@@H](Cc1ccccc1)[C@@H](O)C[C@H](Cc1ccccc1)NC(=O)[C@H](C(C)C)N1CCCNC1=O	94
CC(C)c1nc(CN(C)C(=O)N[C@H](C(=O)N[C@@H](Cc2ccccc2)C[C@H](O)[C@H](Cc2ccccc2)NC(=O)OCc2cncs2)C(C)C)cs1	86
CC(C)(C)NC(=O)[C@@H]1CN(Cc2cccnc2)CCN1C[C@@H](O)C[C@@H](Cc1ccccc1)C(=O)N[C@H]1c2ccccc2C[C@H]1O.O	400

* * *

Tested on: Human immunodeficiency virus 1
Method summary: Antiviral activity against HIV1 A3 isolate with protease I84A mutation in HEK 293 cells relative to wild type
Assay type: functional, HEK293
List of Fold change values.
Quantity measured: Fold change

Record smiles	Target desc	Observed value
CC(C)(C)NC(=O)[C@@H]1C[C@@H]2CCCC[C@@H]2CN1C[C@@H](O)[C@H](Cc1ccccc1)NC(=O)[C@H](CC(N)=O)NC(=O)c1ccc2ccccc2n1	Human immunodeficiency virus 1	365
CC(C)(C)NC(=O)[C@@H]1CN(Cc2cccnc2)CCN1C[C@@H](O)C[C@@H](Cc1ccccc1)C(=O)N[C@H]1c2ccccc2C[C@H]1O.O	Human immunodeficiency virus 1	78
Cc1cccc(C)c1OCC(=O)N[C@@H](Cc1ccccc1)[C@@H](O)C[C@H](Cc1ccccc1)NC(=O)[C@H](C(C)C)N1CCCNC1=O	Human immunodeficiency virus 1	11
